The reported measurements were obtained from patent US20250186597A1.

Biological target: T1, human IL-18BP (Homo sapiens, UniProt O95998)
T1 construct: His
T1 sequence (O95998 31-194): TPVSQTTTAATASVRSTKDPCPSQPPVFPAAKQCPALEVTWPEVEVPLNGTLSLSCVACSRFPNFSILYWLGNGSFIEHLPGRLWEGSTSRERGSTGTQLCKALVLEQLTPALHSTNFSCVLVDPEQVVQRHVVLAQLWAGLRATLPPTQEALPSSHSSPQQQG
Test: IL-18BP binding alphaLISA assay (Example 4, used in Example 22B)
Conditions: IL-18BP AlphaLISA
Hi there, I'd appreciate the recorded pKd for every entry that follows.
By convention, pKd is the negative base-10 log of a molar concentration.

Item under review: C157: IL-18 polypeptide: V11I, C38A, K53A, C76A, C127A, D132A (protein) YFGKLESKLSIIRNLNDQVLFIDQGNRPLFEDMTDSDARDNAPRTIFIISMYADSQPRGMAVTISVKCEKISTLSAENKIISFKEMNPPDNIKDTKSDIIFFQRSVPGHDNKMQFESSSYEGYFLAAEKERALFKLILKKEDELGDRSIMFTVQNED . Reported pKd?
7.86

Please give the result for C156: IL-18 polypeptide: V11I, C38A, N41A, K53A, C76A, C127A (protein) YFGKLESKLSIIRNLNDQVLFIDQGNRPLFEDMTDSDARDAAPRTIFIISMYADSQPRGMAVTISVKCEKISTLSAENKIISFKEMNPPDNIKDTKSDIIFFQRSVPGHDNKMQFESSSYEGYFLAAEKERDLFKLILKKEDELGDRSIMFTVQNED too.
7.73
